system: EKVX NSCLC; experiment: NCI tumour cell line growth inhibition, 48 h
Task for the reader: assign each of the following compounds its reported GI50.

Examples from the recorded data:
COC12C=C/C(=C(/C(=O)OCc3ccncc3)C(=O)CCCCCCCCC3(OC)C=C/C(=C(/C(=O)OCc4ccncc4)C(=O)CCCCCCCC1)O3)O2; 1.21 µM
Cn1cnc([N+](=O)[O-])c1S(=O)(=O)Oc1ccccc1; 17 µM
CCOC(=O)C(=Cc1cccc(Cl)c1)C(=O)OCC; 3.75 µM
Cc1nc2cnc(N)c(C#Cc3cncc(C(=O)Nc4ccc(CN5CCN(C)CC5)c(C(F)(F)F)c4)c3)c2nc1C; 0.739 µM
C=CC(=O)N1CCC(C2CCNc3c(C(N)=O)c(-c4ccc(Oc5ccccc5)cc4)nn32)CC1 (stereo unspecified); 3.49 µM

Q: Quick one: GI50 for COc1ccncc1C#Cc1cncc(C(=O)Nc2ccc(CN3CCN(C)CC3)c(C(F)(F)F)c2)c1 ?
A: 24.7 µM

----------
tested on: U251 CNS; test: NCI tumour cell line growth inhibition, 48 h
readout_type: TGI (µM)
Numbers only, in µM.

Examples from the recorded data:
Cc1cc(OCc2nnc3n2N=C(c2cc(F)c(Cl)cc2Cl)/C(=C/c2ccc(Cl)cc2)S3)ccc1Cl; 43.4
CC(C)=CCc1cc(O)cc2c1OC(C=C(C)C)C1=C2C(=O)C2=C(NCCS2(=O)=O)C1=O (configuration not stated); 5.25
CCN(CC)C(=S)SS(=O)(=O)c1ccc(F)cc1; 73.4
O=[N+]([O-])c1cc2c(c3nonc13)OCCCCO2; 45.5

# evaluate next
Q: Quick one: TGI for C[C@@]12CCC3C1C=C1C(=O)c4cc(O)ccc4C(=O)[C@]1(O2)[C@@]3(C)C=O ?
A: 19

----------
system: UACC-257 melanoma; experiment: NCI tumour cell line growth inhibition, 48 h
Task for the reader: assign each of the following compounds its reported log10 of TGI.
Quick note: numbers are log10 of TGI, with µM as the unit.

Examples from the recorded data:
COc1cc(-c2nn(-c3cccc(NC(=O)Nc4ccc(Cl)c(Cl)c4)c3)cc2-c2ccncc2)ccc1Cl; 0.49
CCN1CCN=c2c3cc(OC)ccc3n3cnc4ccc1c2c43; 0.31
CC(C)=CCc1cc(O)cc2c1OC(C=C(C)C)C1=C2C(=O)C2=C(NCCS2(=O)=O)C1=O (configuration not stated); 0.66

Hi! Can you tell me log10 of TGI for each of these compounds?
1. COC(=O)C1(OC(=O)Sc2ccccc2)CCN(C)CC1
2. O=C(c1cc(Cl)cc(Cl)c1)N1CCN(C(=O)c2cc(Cl)cc(Cl)c2)C1=S

A:
[1.75, 1.46]

Hi! Can you tell me log10 of TGI for each of these compounds?
1. Cc1ccsc1/C=N/Nc1ccc2ccccc2n1
2. CC(CCC#N)(CCC#N)C(=O)CC(O)(C(F)(F)F)C(F)(F)F

A:
[1.73, 1.32]

----------
test system: DMS 114 small cell lung; assay: NCI tumour cell line growth inhibition, 48 h
readout_type: TGI

Hi! Can you tell me TGI for each of these compounds?
1. COc1ccc(/C(=N\NC(=O)C(N)=O)C(c2ccc(OC)cc2)C2(O)C(=O)Nc3c(Cl)cccc32)cc1 (configuration not stated)
2. COC1[C@@H](OC(C)=O)[C@@H](NC(=O)C(Cl)(Cl)Cl)C(I)[C@@H](N2C(=O)c3ccccc3C2=O)[C@H]1OC (some centres not stated)
3. CCC1C2C=CC(CC2)N1S(=O)(=O)c1ccc(C)cc1 (configuration not stated)
4. O=S(Cc1ccccn1)c1nc2ccccc2nc1-c1ccccc1 (configuration not stated)
5. CC(=O)OC1(C#N)CC2OC1C1C2N=NN1C(=O)OC(C)(C)C (configuration not stated)
6. COc1cc2c(cc1O)C1C(O)C(O)C=C3CCN(C2)C31 (configuration not stated)
7. COC(=O)CN(C)P(=O)(N1CC1)N1CC1
8. CC#C[P+](c1ccccc1)(c1ccccc1)c1ccccc1

A:
["> 100 µM", "> 100 µM", "58.1 µM", "69.6 µM", "65.6 µM", "4.33 µM", "> 100 µM", "9.95 µM"]

Hi! Can you tell me TGI for each of these compounds?
1. COc1cc(/C=C/C(=O)O)ccc1C(=O)OCc1ccccc1
2. CCOC(=O)C1(c2ccccc2)CCC(=O)CC1
3. O=c1[nH]cc(COCCO)c(=O)[nH]1
4. CC1=C2CCCC2=C/C(=N/Nc2ccc([N+](=O)[O-])cc2[N+](=O)[O-])CC1
5. O=C(Nc1cc(Cl)ccc1Cl)c1cc2cccc(Cl)c2oc1=O
6. O=C(NC(=O)c1cn(CCNCCO)c(=O)[nH]c1=O)OCc1ccccc1

A:
1: > 100 µM; 2: > 100 µM; 3: > 100 µM; 4: > 100 µM; 5: > 100 µM; 6: > 100 µM

Hi! Can you tell me TGI for each of these compounds?
1. COC(=O)[C@]1(C)CCCC2(C)C1CC[C@H]1C=C(C)[C@H]3CCC12C3 (some centres not stated)
2. Cc1c(Cl)cccc1N1C(=O)C(Cl)=C(Cl)C1=O

A:
["> 100 µM", "> 100 µM"]

Q: Lab note: need TGI with DMS 114 small cell lung for entry O=C1c2ccccc2C2(O)c3cc4ccccc4cc3OC12O (configuration not stated) , please look it up.
A: 99 µM

----------
test system: A498 renal; assay: NCI tumour cell line growth inhibition, 48 h
readout_type: TGI

Examples from the recorded data:
CCC1C2C=CC(CC2)N1S(=O)(=O)c1ccc(C)cc1 (stereo not drawn); > 100 µM
CC(C)(C)c1cc(C(=O)/C=C/C=C/c2ccccc2)cc(C(C)(C)C)c1O; > 80.7 µM
CC(=O)OC12c3ccccc3-c3ccccc3C1C1C(=O)N(C)C(=O)C12Cl (stereo not drawn); > 10 µM
C[C@@H]1C[C@](O)([C@@H](C)Cl)C(=O)O[C@@H]2CCN3CC=C(COC(=O)[C@]1(C)O)[C@H]23; > 100 µM
Cc1ccc(NC(=O)C2C(=O)N(c3ccc(C)c(C)c3)C(=O)C2N=N)cc1C (stereo not drawn); > 100 µM

Hi! Can you tell me TGI for each of these compounds?
1. COc1ccc(NC(=O)/C(N=O)=C(/C)O)cc1
2. O=[N+]([O-])c1ccc(S(=O)(=O)N=Ic2ccccc2)cc1
3. CCOC(=O)c1ccc(C(=O)/C(C#N)=C2\CCCN2C)[nH]1

A:
> 100 µM
> 100 µM
> 100 µM

----------
system: CAKI-1 renal; assay: NCI tumour cell line growth inhibition, 48 h
readout_type: GI50

Examples from the recorded data:
Cn1cc(C2=C(c3cn(C)c4cc(C(N)=O)ccc34)C(=O)NC2=O)c2ccccc21; 831 nM
CCCCCCNC(=O)c1nc(-c2ccccc2)oc1Cc1ccc(OP(=O)(O)O)cc1; 15800 nM
Cn1cnc([N+](=O)[O-])c1S(=O)(=O)Oc1ccccc1; 1660 nM

# evaluate next
Q: Quick one: GI50 for COc1cc(-c2nn(-c3cccc(NC(=O)Nc4ccc(Cl)c(Cl)c4)c3)cc2-c2ccncc2)ccc1Cl ?
A: 1120 nM

----------
test system: OVCAR-4 ovarian; test: NCI tumour cell line growth inhibition, 48 h
readout_type: TGI

CC(NNC(=O)CC(=O)N(C(=O)c1ccccc1)c1ccc(Cl)cc1)c1cc2ccccc2oc1=O (stereo not given); > 10 µM
COc1ccncc1C#Cc1cncc(C(=O)Nc2ccc(CN3CCN(C)CC3)c(C(F)(F)F)c2)c1; > 100 µM
O=c1c2c(-c3ccccc3)onc2n(-c2ccccc2)c(=O)n1-c1ccccc1; > 100 µM

Hi! Can you tell me TGI for each of these compounds?
1. CC1=C2CCCC2=C/C(=N/Nc2ccc([N+](=O)[O-])cc2[N+](=O)[O-])CC1
2. Cc1[nH]c2ccccc2c1-c1cc(-c2cc(-c3c(C)[nH]c4ccccc34)on2)no1

A:
1. > 100 µM
2. > 100 µM

----------
Task for the reader: assign each of the following compounds its reported TGI.
test system: U251 CNS; experiment: NCI tumour cell line growth inhibition, 48 h

Examples from the recorded data:
CC(=O)n1c2c(c(=O)n1-c1ccccc1)S(=O)CCC2 (configuration not stated); > 100 µM
CCCNC(=S)/N=C/c1c(O)c2ccccc2[nH]c1=O; > 100 µM

Hi! Can you tell me TGI for each of these compounds?
1. COC(=O)c1c(O)ccc2c1c1c(n2Cc2ccc(Cl)cc2Cl)C(=O)c2ccccc2C1
2. N=c1ccn2c(n1)OC1C(O)C(CO)OC12 (configuration not stated)
3. COc1cc(CNCCCN2C(=O)c3ccc4c5c(ccc(c35)C2=O)C(=O)N(CCCNCc2cc(OC)c(OC)c(OC)c2)C4=O)cc(OC)c1OC
4. Cc1ccc(-c2c3c(n(C4OC(CO)C(O)C(O)C4O)c(=S)c2C#N)CC(C)(C)CC3=O)cc1 (configuration not stated)
5. COc1cccc2c1C(=O)c1c(O)c3c(c(O)c1C2=O)C[C@@](O)(C(=O)CO)C[C@@H]3OC1CC(N)C(OC)C(C)O1 (some centres not stated)
6. COc1cc(C2SCC(=O)N2c2ccc(Cl)c(Cl)c2)cc(OC)c1OC (configuration not stated)

A:
["> 100 µM", "> 1000 µM", "0.93 µM", "> 100 µM", "0.441 µM", "> 100 µM"]

Hi! Can you tell me TGI for each of these compounds?
1. O=C(O)[C@H](NS(=O)(=O)c1ccc2ccccc2c1)c1ccccc1
2. CCCCCCC[CH2][Sn]1([CH2]CCCCCCC)[O]C(=O)c2cccnc2[S]1
3. Cc1ccc(Cl)cc1Nc1nc(C(F)(F)F)ccc1C(=O)N1CCN(c2cccc(Cl)c2)CC1
4. COc1ccc(/C(=N\NC(=O)C(N)=O)C(c2ccc(OC)cc2)C2(O)C(=O)Nc3c(Cl)cccc32)cc1 (configuration not stated)
5. O=C1[C@@H]2C3c4ccccc4C([C@@H]2C(=O)N1c1ccccc1)S3(=O)=O

A:
["> 100 µM", "> 100 µM", "> 100 µM", "> 100 µM", "> 100 µM"]

Hi! Can you tell me TGI for each of these compounds?
1. Cc1ccc(C(=O)N/N=C(\N=Nc2ccccc2[N+](=O)[O-])c2ccc(N(C)C)cc2)cc1
2. O=C(O)CCN(CCC(=O)O)c1ccc(/C=C2\SC(=S)NC2=O)cc1
3. CS(=O)(=O)CCCn1c(=O)c(Oc2ccc(F)cc2F)cc2cnc(NC3CCOCC3)nc21
4. CCOC(=O)C(C)(C)Oc1ccc2c(C)c(-c3ccc(Cl)cc3)c(=O)oc2c1

A:
1. > 100 µM
2. > 100 µM
3. > 25 µM
4. > 100 µM
